- System: WNK2(h) (Homo sapiens)
- Sequence (Q9Y3S1 whole entry): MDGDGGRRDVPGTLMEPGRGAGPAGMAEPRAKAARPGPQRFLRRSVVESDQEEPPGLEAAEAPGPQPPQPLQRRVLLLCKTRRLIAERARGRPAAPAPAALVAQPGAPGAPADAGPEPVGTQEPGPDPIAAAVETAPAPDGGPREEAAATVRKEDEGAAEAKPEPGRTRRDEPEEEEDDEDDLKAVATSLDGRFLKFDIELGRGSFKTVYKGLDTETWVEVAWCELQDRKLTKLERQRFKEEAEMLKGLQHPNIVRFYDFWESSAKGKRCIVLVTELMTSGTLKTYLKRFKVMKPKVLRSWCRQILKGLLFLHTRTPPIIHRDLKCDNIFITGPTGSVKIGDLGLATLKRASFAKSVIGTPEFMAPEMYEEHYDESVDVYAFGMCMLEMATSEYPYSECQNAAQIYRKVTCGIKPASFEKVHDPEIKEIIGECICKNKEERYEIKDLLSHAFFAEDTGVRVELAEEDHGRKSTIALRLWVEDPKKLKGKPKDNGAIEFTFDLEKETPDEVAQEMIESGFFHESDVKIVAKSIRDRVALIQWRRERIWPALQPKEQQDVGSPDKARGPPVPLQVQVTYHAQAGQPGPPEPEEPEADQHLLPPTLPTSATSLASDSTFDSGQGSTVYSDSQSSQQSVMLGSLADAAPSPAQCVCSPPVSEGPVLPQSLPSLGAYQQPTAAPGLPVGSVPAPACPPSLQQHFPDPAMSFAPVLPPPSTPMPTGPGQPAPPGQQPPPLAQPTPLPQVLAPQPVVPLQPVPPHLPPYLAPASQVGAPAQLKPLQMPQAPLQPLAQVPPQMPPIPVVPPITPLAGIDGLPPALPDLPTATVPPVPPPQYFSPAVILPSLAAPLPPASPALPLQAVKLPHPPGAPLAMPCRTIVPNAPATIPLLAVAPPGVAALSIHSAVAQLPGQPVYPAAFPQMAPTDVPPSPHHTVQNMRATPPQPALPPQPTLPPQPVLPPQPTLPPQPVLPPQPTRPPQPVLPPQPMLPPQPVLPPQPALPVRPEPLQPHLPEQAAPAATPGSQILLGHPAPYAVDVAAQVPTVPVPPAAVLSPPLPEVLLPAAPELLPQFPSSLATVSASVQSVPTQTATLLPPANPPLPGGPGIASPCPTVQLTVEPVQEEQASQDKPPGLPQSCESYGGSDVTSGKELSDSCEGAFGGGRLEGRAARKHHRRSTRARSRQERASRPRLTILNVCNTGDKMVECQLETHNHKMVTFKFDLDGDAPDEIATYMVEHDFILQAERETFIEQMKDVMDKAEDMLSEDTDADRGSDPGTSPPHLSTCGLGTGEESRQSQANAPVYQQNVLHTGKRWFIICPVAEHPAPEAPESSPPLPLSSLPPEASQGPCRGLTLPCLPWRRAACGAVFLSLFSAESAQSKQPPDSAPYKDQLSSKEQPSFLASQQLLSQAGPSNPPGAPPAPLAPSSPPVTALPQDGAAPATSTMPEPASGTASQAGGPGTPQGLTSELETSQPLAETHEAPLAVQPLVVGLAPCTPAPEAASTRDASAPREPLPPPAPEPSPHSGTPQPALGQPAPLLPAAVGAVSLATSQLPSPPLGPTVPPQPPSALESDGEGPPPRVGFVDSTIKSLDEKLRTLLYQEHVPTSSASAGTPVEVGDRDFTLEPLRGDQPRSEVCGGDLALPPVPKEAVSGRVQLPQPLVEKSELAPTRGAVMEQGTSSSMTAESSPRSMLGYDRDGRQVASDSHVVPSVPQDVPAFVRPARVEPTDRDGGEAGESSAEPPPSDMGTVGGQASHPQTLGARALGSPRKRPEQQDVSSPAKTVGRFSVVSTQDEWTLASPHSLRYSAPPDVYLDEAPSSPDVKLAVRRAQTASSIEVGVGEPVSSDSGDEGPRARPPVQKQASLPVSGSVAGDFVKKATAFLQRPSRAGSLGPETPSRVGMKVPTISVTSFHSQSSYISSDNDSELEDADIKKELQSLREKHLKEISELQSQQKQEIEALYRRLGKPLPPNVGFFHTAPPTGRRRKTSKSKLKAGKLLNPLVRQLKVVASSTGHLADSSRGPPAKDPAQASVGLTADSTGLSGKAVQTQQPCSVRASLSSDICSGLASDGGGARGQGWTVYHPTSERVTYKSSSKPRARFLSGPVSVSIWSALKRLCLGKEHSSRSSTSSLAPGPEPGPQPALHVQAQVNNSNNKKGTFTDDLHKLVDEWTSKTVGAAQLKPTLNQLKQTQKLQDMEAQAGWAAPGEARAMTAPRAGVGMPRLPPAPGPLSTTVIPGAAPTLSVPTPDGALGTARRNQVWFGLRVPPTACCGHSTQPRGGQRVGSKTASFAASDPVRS
- Method Summary: Kinase Profiling Assay
- Format: biochemical
- Test Settings: peptide 100 μM
No end group written: not given here.
Doc: threshold 50% (exclusive). Items with % activity beneath it return true; others return false.

Reference set (4 entries):
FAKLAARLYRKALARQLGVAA [MMI-0300] :: false
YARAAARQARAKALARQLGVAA [MMI-0100] :: false
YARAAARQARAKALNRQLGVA (Mammal) [MMI-0200] :: false
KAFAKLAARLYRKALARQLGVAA [MMI-0400] :: false

Continue with the next sequence.
Problem: For the sequence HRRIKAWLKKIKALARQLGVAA (Mammal) [MMI-0500] , is % activity under 50%?
true

----------
- System: PKCδ(h) (Homo sapiens, UniProt Q05655)
- Sequence (Q05655 whole entry): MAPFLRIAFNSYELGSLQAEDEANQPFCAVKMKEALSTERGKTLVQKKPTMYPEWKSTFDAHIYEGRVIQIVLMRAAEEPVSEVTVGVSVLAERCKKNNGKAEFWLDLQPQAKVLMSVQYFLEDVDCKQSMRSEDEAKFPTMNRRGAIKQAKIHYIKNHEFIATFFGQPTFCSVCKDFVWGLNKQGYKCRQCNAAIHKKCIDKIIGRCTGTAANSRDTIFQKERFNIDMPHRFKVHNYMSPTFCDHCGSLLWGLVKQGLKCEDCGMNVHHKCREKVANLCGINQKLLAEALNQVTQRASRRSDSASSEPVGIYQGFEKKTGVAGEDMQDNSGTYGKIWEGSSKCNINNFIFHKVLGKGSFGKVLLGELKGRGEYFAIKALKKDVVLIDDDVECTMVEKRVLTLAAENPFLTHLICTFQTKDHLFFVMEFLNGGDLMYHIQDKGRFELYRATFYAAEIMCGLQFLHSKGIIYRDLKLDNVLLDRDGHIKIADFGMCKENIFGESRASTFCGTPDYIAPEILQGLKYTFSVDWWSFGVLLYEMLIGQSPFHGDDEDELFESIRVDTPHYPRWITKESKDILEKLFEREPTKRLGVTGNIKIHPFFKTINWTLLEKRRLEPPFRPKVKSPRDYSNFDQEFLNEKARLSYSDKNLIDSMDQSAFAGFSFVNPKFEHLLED
- Method Summary: Kinase Profiling Assay
- Assay type: biochemical
- Test Settings: peptide 100 μM
Readout Label: % activity (%)
Dear colleague, please return just the value in %, with no unit written.

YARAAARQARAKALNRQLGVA (Mammal) [MMI-0200] :: 101
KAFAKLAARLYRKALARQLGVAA [MMI-0400] :: 90
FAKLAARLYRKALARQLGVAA [MMI-0300] :: 101

Here is the next item to consider.
What % activity value was documented for this sequence, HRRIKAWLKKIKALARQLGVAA (Mammal) [MMI-0500] ?
61

----------
- System: MSSK1(h) (Homo sapiens, UniProt Q9UPE1)
- Construct: purchased Millipore
- Method Summary: Kinase Profiling Assay
- Assay type: biochemical
- Test Settings: peptide 100 μM
No end group written: not given here.
% activity by entry:
Be sure to follow the number with its unit.

Record excerpt, results attached:
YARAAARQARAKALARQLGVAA [MMI-0100] :: 82%
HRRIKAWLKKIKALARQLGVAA (Mammal) [MMI-0500] :: 22%
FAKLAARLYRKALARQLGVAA [MMI-0300] :: 77%
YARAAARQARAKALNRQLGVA (Mammal) [MMI-0200] :: 100%

Could you share which % activity value was measured for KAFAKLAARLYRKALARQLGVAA [MMI-0400] ?
75%

----------
- System: PASK(h) (Homo sapiens, UniProt Q96RG2)
- Sequence (Q96RG2 whole entry): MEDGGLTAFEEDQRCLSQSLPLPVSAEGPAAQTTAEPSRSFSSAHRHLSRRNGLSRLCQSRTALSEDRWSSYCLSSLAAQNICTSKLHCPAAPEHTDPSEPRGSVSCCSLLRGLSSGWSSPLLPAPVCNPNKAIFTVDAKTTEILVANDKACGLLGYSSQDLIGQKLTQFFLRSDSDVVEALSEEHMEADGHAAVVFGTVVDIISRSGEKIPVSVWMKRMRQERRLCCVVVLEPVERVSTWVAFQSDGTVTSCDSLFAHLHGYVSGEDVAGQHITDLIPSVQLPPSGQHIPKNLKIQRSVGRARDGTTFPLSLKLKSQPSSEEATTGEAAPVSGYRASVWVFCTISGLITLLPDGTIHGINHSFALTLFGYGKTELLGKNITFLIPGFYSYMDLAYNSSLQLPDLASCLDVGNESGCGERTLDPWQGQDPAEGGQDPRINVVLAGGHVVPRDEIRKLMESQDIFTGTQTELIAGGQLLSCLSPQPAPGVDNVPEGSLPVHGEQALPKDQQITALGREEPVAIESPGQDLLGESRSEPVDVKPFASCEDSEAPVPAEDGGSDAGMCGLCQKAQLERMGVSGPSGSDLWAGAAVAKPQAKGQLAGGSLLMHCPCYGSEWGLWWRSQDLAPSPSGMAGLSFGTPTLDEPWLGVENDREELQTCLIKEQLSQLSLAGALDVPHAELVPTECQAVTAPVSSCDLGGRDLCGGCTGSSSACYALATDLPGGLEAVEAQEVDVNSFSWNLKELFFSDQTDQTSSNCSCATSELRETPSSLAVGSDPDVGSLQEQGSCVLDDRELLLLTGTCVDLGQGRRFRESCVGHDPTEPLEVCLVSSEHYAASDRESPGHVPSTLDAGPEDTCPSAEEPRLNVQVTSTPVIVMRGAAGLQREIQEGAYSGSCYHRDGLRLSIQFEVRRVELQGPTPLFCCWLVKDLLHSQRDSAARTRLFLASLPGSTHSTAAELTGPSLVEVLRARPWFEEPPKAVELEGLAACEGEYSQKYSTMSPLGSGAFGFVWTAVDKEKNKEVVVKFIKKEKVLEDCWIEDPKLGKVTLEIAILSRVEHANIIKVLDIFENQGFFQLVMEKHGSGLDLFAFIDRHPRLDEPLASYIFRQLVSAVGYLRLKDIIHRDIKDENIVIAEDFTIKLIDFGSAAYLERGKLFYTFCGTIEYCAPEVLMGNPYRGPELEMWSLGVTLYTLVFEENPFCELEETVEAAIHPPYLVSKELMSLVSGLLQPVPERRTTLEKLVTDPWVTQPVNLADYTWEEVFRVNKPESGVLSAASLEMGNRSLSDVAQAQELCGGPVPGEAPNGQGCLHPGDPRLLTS
- Method Summary: Kinase Profiling Assay
- Type: biochemical
- Test Settings: peptide 100 μM
No end group written: not given here.
Outcome label depends on % activity relative to 30%: at/above gives Fulfilled, below gives Not fulfilled.

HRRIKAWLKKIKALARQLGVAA (Mammal) [MMI-0500] :: Not fulfilled
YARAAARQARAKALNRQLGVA (Mammal) [MMI-0200] :: Fulfilled
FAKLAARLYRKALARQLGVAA [MMI-0300] :: Not fulfilled
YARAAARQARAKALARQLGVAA [MMI-0100] :: Fulfilled

Quick check, % activity >= 30%? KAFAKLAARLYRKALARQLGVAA [MMI-0400]
Not fulfilled

----------
List of % activity values.
- System: TSSK1(h) (Homo sapiens)
- Sequence (Q9BXA7 1-367): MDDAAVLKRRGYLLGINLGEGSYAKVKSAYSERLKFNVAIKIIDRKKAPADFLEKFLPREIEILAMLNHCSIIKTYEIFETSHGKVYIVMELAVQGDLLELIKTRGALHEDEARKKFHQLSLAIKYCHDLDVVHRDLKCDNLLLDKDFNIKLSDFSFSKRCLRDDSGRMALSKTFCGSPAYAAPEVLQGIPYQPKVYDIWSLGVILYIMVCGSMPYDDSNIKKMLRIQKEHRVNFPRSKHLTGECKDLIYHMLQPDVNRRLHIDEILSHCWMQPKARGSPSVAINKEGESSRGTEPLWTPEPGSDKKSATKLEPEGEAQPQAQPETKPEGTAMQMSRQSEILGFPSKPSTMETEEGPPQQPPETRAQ
- Method Summary: Kinase Profiling Assay
- Assay type: biochemical
- Test Settings: peptide 100 μM
No end group written: not given here.
// return numeric value only (unit: %, not printed)

Record excerpt, results attached:
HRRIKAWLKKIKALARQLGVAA (Mammal) [MMI-0500] :: 46
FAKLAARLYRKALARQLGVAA [MMI-0300] :: 79
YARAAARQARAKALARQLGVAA [MMI-0100] :: 99
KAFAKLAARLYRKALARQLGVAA [MMI-0400] :: 79

Field request: % activity | item: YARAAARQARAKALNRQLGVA (Mammal) [MMI-0200]
98

----------
Each entry below carries its recorded % activity.
- System: ROCK-II(h) (Homo sapiens, UniProt O75116)
- Method Summary: Kinase Profiling Assay
- Format: biochemical
- Test Settings: peptide 100 μM
Answer format: numeric, % implied, no suffix.

A selection of reference data follows.
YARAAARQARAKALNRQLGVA (Mammal) [MMI-0200] :: 85
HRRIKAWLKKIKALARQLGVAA (Mammal) [MMI-0500] :: 2
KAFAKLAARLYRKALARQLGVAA [MMI-0400] :: 77

What value of % activity has been reported for the following sequence? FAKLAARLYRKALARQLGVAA [MMI-0300]
74

----------
- System: ZAP-70(h) (Homo sapiens)
- Sequence (P43403 1-619): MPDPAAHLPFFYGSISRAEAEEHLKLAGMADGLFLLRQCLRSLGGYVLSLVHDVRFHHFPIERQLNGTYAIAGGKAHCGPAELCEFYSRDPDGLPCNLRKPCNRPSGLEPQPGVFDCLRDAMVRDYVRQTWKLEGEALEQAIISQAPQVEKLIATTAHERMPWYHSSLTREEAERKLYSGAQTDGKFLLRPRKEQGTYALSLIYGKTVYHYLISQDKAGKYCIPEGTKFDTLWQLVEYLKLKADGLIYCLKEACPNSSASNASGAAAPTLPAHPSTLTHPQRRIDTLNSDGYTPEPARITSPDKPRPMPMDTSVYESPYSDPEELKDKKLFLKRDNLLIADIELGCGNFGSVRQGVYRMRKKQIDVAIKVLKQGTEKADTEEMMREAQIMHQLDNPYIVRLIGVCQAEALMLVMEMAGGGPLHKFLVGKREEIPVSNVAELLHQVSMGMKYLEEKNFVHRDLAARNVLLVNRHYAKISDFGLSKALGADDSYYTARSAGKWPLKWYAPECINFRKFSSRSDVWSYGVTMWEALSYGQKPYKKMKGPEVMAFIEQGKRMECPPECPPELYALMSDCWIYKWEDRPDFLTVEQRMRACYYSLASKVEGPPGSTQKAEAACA
- Method Summary: Kinase Profiling Assay
- Format: biochemical
- Test Settings: peptide 100 μM
No end group written: not given here.
# key: entry, value: % activity
Write it as a number; the unit % goes unstated.

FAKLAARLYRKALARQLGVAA [MMI-0300] :: 75
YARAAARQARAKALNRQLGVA (Mammal) [MMI-0200] :: 58
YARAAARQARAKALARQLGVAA [MMI-0100] :: 79
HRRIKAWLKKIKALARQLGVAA (Mammal) [MMI-0500] :: 1

Attention now shifts to the item below.
Field request: % activity | item: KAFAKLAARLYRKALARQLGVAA [MMI-0400]
33

----------
- System: IR(h), activated (Homo sapiens, UniProt P06213)
- Construct: purchased Millipore
- Sequence (P06213 1005-1310 limits assumed): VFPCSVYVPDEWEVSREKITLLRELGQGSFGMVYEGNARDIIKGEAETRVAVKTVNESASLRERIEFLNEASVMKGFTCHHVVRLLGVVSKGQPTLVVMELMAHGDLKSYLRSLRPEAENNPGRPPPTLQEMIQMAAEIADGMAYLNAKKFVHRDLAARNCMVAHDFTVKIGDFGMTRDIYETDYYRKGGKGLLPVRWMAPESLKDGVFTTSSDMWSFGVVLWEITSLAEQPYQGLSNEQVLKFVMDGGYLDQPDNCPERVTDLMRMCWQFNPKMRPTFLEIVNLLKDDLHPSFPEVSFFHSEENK
- Method Summary: Kinase Profiling Assay
- Format: biochemical
- Test Settings: peptide 100 μM
No end group written: not given here.
Each record here notes measured % activity.
Lab book: enter the figure in %, no units written.

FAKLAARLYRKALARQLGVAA [MMI-0300] :: 79
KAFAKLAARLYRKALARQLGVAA [MMI-0400] :: 59
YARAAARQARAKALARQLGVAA [MMI-0100] :: 127

// next entry
Reported % activity, sequence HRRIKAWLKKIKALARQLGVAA (Mammal) [MMI-0500] : ____
90

----------
- System: IRAK4(h) (Homo sapiens)
- Construct: purchased Millipore
- Sequence (Q9NWZ3 1-460): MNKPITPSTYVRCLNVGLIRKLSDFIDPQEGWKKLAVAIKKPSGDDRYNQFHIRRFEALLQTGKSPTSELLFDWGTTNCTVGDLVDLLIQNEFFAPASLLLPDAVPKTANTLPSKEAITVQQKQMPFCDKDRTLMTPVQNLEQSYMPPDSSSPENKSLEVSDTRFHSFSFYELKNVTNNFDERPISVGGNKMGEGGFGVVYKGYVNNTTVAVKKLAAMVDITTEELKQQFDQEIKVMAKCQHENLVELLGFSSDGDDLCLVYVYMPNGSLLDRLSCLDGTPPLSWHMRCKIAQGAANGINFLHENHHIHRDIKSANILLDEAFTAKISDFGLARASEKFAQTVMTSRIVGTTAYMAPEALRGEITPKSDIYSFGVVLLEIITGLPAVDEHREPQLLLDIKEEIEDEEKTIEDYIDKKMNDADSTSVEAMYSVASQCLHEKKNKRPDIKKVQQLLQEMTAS
- Method Summary: Kinase Profiling Assay
- Type: biochemical
- Test Settings: peptide 100 μM
Readout Label: % activity (%)
Give just the number in %; leave the unit off.

// known answers, use as guide
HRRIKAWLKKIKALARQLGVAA (Mammal) [MMI-0500] :: 3
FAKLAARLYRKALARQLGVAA [MMI-0300] :: 59
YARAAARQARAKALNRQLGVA (Mammal) [MMI-0200] :: 110

We now examine a further sequence.
Given the entry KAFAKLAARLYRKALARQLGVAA [MMI-0400] , report its measured % activity.
59
